Molecular target: PD-L1 on CHO-K1/PD-L1/alphaAPC stimulator cells (UniProt Q9NZQ7 19-290, limits assumed)
Sequence (Q9NZQ7 19-290 limits assumed): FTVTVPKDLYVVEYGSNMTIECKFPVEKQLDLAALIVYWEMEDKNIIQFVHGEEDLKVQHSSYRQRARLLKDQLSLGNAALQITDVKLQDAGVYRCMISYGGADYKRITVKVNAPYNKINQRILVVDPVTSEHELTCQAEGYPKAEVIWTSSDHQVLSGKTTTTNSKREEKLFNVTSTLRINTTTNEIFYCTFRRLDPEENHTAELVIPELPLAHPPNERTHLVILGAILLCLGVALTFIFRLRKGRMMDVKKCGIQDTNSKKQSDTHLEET
Test: cell-based or functional assay
Assay endpoint: PD-L1/PD-1 blockade EC50 (ng/ml) (ng/mL)
Provide the reading as a plain figure in ng/mL.

Reported PD-L1/PD-1 blockade EC50 (ng/ml) for PD-L1 binding agent 4 (antibody, V domains shown) VH: QVQLVQSGAEVKKPGSSVKVSCKASGYTFTGYYIHWVRQAPGQGLEWMGGIIPIFGTASYAQKFQGRVTITADESTSTAYMELSSLRSEDTAVYYCARDGRFWSGYPDYWGQGTLVTVSS VL: DIQMTQSPSSLSASVGDRVTITCRASQGISNYLAWYQQKPGKAPKLLIYRASNLESGVPSRFSGSGSGTDFTLTISSLQPEDFATYYCQQSYSTPLTFGGGTKVEIK was 124
